- assayed-system: cloned human dopamine D3 receptors (Homo sapiens)
- Construct: expressed in transfected cells; membrane homogenate
- measurement-description: [N-Methyl-3H]Spiroperidol binding to cloned human dopamine D3 receptors
- condition-context: read-out: D3 Ki
The label is YES for Ki below 0.04 µM and NO for Ki equal to or exceeding 0.04 µM.

compound: O=C(NCCCCc1cccnc1)C1CC1CN1CCC(c2noc3ccsc23)CC1 (racemic)
classification: YES
--
compound: O=C(NCCCN1CCCCC1)[C@@H]1C[C@H]1CN1CCC(c2nn(-c3ccc(F)cc3)c3cc(F)ccc23)CC1
classification: NO
--
compound: O=C(NC1CCN(Cc2cccc(F)c2F)CC1)C1CC1CN1CCC(c2noc3ccsc23)CC1 (racemic)
classification: YES
--
compound: O=C([C@@H]1C[C@H]1CN1CCC(c2csc3cc(C(F)(F)F)ccc23)CC1)N1CCCC(Cn2ccnc2)C1 (mixture of isomers)
classification: YES
--
compound: CN1CCCN(C(=O)C2CC2CN2CCC(c3noc4ccsc34)CC2)CC1 (racemic)
classification: NO
--
compound: C[C@H]1CC[C@H](NC(=O)[C@@H]2C[C@H]2CN2CCC(c3nn(C4CCCCC4)c4cc(C(F)(F)F)ccc34)CC2)CC1
classification: NO
--
compound: C[C@H]1CC[C@H](NC(=O)[C@@H]2C[C@H]2CN2CCN(c3nn(-c4ccc(F)cc4)c4ccsc34)CC2)CC1
classification: YES

----------
Listed here are molecules together with their documented Ki.
- assayed-system: cloned human dopamine D3 receptors (Homo sapiens, UniProt P35462)
- Construct: expressed in transfected cells; membrane homogenate
- Sequence (P35462 whole entry): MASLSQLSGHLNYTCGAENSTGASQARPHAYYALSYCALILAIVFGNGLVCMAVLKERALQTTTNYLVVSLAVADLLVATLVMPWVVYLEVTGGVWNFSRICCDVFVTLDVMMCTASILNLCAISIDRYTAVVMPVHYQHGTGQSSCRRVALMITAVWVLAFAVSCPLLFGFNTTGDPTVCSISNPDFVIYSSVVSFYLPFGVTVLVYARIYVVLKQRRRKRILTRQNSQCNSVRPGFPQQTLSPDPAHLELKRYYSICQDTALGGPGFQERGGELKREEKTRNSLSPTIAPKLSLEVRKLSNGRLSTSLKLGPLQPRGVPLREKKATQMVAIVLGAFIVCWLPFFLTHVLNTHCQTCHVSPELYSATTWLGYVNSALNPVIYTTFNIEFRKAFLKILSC
- measurement-description: [N-Methyl-3H]Spiroperidol binding to cloned human dopamine D3 receptors
- condition-context: read-out: D3 Ki
measurement-name: Ki (nM)

molecule: O=C([C@@H]1C[C@H]1CN1CCN(c2csc3cc(F)ccc23)CC1)N1CCC(O)CC1
result: 2.38
--
molecule: O=C(NC1CCN(Cc2cccnc2)CC1)C1CC1CN1CCC(c2noc3ccsc23)CC1 (racemic)
result: 8.32
--
molecule: O=C(C1CC1CN1CCC(c2noc3ccsc23)CC1)N1CCC(c2cc(-c3ccco3)[nH]n2)CC1 (racemic)
result: 47.5
--
molecule: O=C(C1CC1CN1CCC(c2noc3ccsc23)CC1)N1CCN(C2CCCC2)CC1 (racemic)
result: 22.9
--
molecule: O=C(C1CC1CN1CCC(c2noc3ccsc23)CC1)N1CCC(CCN2CCCC2)CC1 (racemic)
result: 5.81
--
molecule: CC1(C)COCN1C(=O)[C@@H]1C[C@H]1CN1CCC(c2noc3ccsc23)CC1
result: 22.4
--
molecule: CN(C)Cc1ccc(CSCCNC(=O)C2CC2CN2CCC(c3noc4ccsc34)CC2)o1 (racemic)
result: 2.96
--
molecule: O=C(NCCc1ccccc1)[C@@H]1C[C@H]1CN1CCC(c2noc3ccsc23)CC1
result: 5.3
--
molecule: O=C(N[C@H]1CC[C@H](O)CC1)[C@@H]1C[C@H]1CN1CCC(c2noc3ccsc23)CC1
result: 11.4
--
molecule: O=C(C1CC1CN1CCC(c2noc3ccsc23)CC1)N1CCC(Oc2ccc(Cl)cc2)CC1 (racemic)
result: 27.3
--
molecule: O=C(NCCc1ccccc1Cl)C1CC1CN1CCC(c2noc3ccsc23)CC1 (racemic)
result: 46.3
--
molecule: O=C(NC1CCN(Cc2c(Cl)cccc2Cl)CC1)C1CC1CN1CCC(c2noc3ccsc23)CC1 (racemic)
result: 24.1
--
molecule: COc1c(F)ccc2c(C3CCN(C[C@@H]4C[C@H]4C(=O)N[C@H]4CC[C@H](O)CC4)CC3)noc12
result: 42.8
--
molecule: Cn1nc(C2CCN(C[C@@H]3C[C@H]3C(=O)N3CCC[C@@H](Cn4ccnc4)C3)CC2)c2sccc21
result: 1.22
--
molecule: COc1ccc2[nH]nc(N3CCN(C[C@@H]4C[C@H]4C(=O)N[C@H]4CC[C@H](C)CC4)CC3)c2c1
result: 2.3

----------
- assayed-system: cloned human dopamine D3 receptors (Homo sapiens)
- Construct: expressed in transfected cells; membrane homogenate
- measurement-description: [N-Methyl-3H]Spiroperidol binding to cloned human dopamine D3 receptors
- condition-context: Table 2; D3 receptor binding; read-out: d3Ki
pKi: −log10 of the molar value.
Listed here are compounds together with their documented pKi.

compound: CC1CCCN(C(=O)CCCN2CCN(c3csc4cc(C(F)(F)F)ccc34)CC2)C1 (stereo not shown)
pKi: 7.50

compound: O=C(CCCN1CCN(c2csc3cc(C(F)(F)F)ccc23)CC1)N1CCC(O)CC1
pKi: 8.14

compound: CC1CCN(C(=O)CCCN2CCN(c3csc4cc(C(F)(F)F)ccc34)CC2)CC1
pKi: 7.99

compound: CC1CCCCN1C(=O)CCCN1CCN(c2csc3cc(C(F)(F)F)ccc23)CC1 (stereo not shown)
pKi: 8.29

----------
- assayed-system: cloned human dopamine D3 receptors (Homo sapiens)
- Construct: expressed in transfected cells; membrane homogenate
- measurement-description: [N-Methyl-3H]Spiroperidol binding to cloned human dopamine D3 receptors
- condition-context: read-out: D3 Ki
measurement-name: log10 Ki (log10 of the value in nM)

molecule: COc1cccc2c(C3CCN(C[C@@H]4C[C@H]4C(=O)N[C@H]4CC[C@H](C)CC4)CC3)noc12
log10 Ki: -1.55

molecule: CC[C@H]1CC[C@H](NC(=O)C2(CCN3CCN(c4csc5cc(C(F)(F)F)ccc45)CC3)CC2)CC1
log10 Ki: 2.24

molecule: CN1CCN(CCCNC(=O)[C@@H]2C[C@H]2CN2CCC(c3nn(-c4ccccc4)c4ccsc34)CC2)CC1
log10 Ki: 1.49

molecule: COc1ccc2c(c1)c(N1CCN(C[C@@H]3C[C@H]3C(=O)NC3CCN(CC4CC4)CC3)CC1)nn2C
log10 Ki: 0.14

molecule: NS(=O)(=O)c1ccc(CCNC(=O)C2CC2CN2CCC(c3noc4ccsc34)CC2)cc1 (racemic)
log10 Ki: 1.75

molecule: O=C([C@@H]1C[C@H]1CN1CCN(c2nc3cccc4c3n2CCC4)CC1)N1CCC[C@@H](Cn2ccnc2)C1
log10 Ki: 0.14

molecule: O=C(NC1CCN(C(=O)c2ccc(Cl)c(Cl)c2)CC1)C1CC1CN1CCC(c2noc3ccsc23)CC1 (racemic)
log10 Ki: 1.11

molecule: O=C(NCCCN1CCCCC1)[C@@H]1C[C@H]1CN1CCC(c2cc3ccccc3s2)CC1
log10 Ki: 1.09

molecule: COc1ccc2c(c1)c(N1CCN(C[C@@H]3C[C@H]3C(=O)NCCCn3cnc4ccccc43)CC1)nn2C
log10 Ki: 1.40

molecule: O=C(NCCNC(=O)C1CC1CN1CCC(c2noc3ccsc23)CC1)OCc1ccccc1 (racemic)
log10 Ki: 2.24

molecule: O=C([C@@H]1C[C@H]1CN1CCC(c2csc3cc(C(F)(F)F)ccc23)CC1)N1CCC(Cn2ccnc2)CC1
log10 Ki: 0.21

molecule: O=C(NC1CCN(C(=O)Nc2ccc(Cl)cc2)CC1)C1CC1CN1CCC(c2noc3ccsc23)CC1 (racemic) [832575ES]
log10 Ki: 0.61

molecule: O=C(NCCCN1CCCCC1)[C@@H]1C[C@H]1CN1CCC(c2nsc3cc(Br)ccc23)CC1
log10 Ki: 0.80

molecule: O=C(NCCC1CCCCN1)[C@@H]1C[C@H]1CN1CCN(c2csc3cc(C(F)(F)F)ccc23)CC1 (mixture of isomers)
log10 Ki: 1.05

----------
- assayed-system: cloned human dopamine D3 receptors (Homo sapiens)
- Construct: expressed in transfected cells; membrane homogenate
- measurement-description: [N-Methyl-3H]Spiroperidol binding to cloned human dopamine D3 receptors
- condition-context: read-out: D3 Ki
pKi: −log10 of the molar value.
Would you mind labelling by pKi? At or over 7 is criterion met, under is criterion not met.

molecule: O=C(NCC1CCNCC1)[C@@H]1C[C@H]1CN1CCC(c2nn(-c3ccccc3)c3ccsc23)CC1 [A002440436A]
classification: criterion met
//
molecule: CCCc1cc(N2CCN(CC3CC3C(=O)NC3CCC(C)CC3)CC2)nc(C(C)(C)C)n1 (racemic)
classification: criterion met
//
molecule: C=CCN1CCN(C(=O)[C@@H]2C[C@H]2CN2CCN(c3csc4cc(C(F)(F)F)ccc34)CC2)CC1
classification: criterion met
//
molecule: C[C@H]1CC[C@H](N2CC(CN3CCN(c4noc5ccsc45)CC3)CC2=O)CC1 (stereo partly shown) [832831DA]
classification: criterion not met
//
molecule: C[C@H]1CC[C@H](NC(=O)[C@@H]2CC[C@H]2CN2CCCN(c3noc4ccsc34)CC2)CC1 (racemic)
classification: criterion not met

----------
- assayed-system: cloned human dopamine D3 receptors (Homo sapiens)
- Construct: expressed in transfected cells; membrane homogenate
- measurement-description: [N-Methyl-3H]Spiroperidol binding to cloned human dopamine D3 receptors
- condition-context: read-out: D3 Ki
measurement-name: log10 of Ki (log10 of the value in nM)

molecule: O=C(NCCSc1ccc(Cl)cc1)C1CC1CN1CCC(c2noc3ccsc23)CC1 (racemic)
result: 1.72

molecule: O=C(C1CC1CN1CCC(c2noc3ccsc23)CC1)N1CCN(c2ccc(OCc3ccccc3)cc2)CC1 (racemic)
result: 0.62

molecule: O=C(NCCc1c[nH]c2ccccc12)[C@@H]1C[C@H]1CN1CCC(c2noc3ccsc23)CC1
result: 0.41

molecule: CCC1CCC(NC(=O)C2CC2CN2C3CCC2CC(c2n[nH]c4cc(F)ccc24)C3)CC1 (stereo not shown)
result: 0.82

molecule: O=C([C@@H]1C[C@H]1CN1CCC(c2cc3ccccc3s2)CC1)N1CCC(N2CCCC2)CC1
result: 2.22

molecule: O=C(C1CC1CN1CCC(c2noc3ccsc23)CC1)N1CCN(Cc2ccncc2)CC1 (racemic)
result: 2.67

molecule: COc1ccc2c(c1)c(N1CCN(C[C@@H]3C[C@H]3C(=O)NC3CCN(CC4CCCCC4)CC3)CC1)nn2C
result: 0.37

molecule: COc1cccc2c(C3CCN(C[C@@H]4C[C@H]4C(=O)NCCCN4CCCCC4)CC3)nn(C)c12
result: 1.97

molecule: O=C(c1ccc(Cl)cc1)C1CCN(C(=O)C2CC2CN2CCC(c3noc4ccsc34)CC2)CC1 (racemic)
result: 0.87

molecule: O=C(NCCCN1CCCCC1)[C@@H]1C[C@H]1CN1CCC(c2csc3cc(C(F)(F)F)ccc23)CC1
result: 0.09

molecule: O=C(NCCCCc1ccccc1)[C@@H]1C[C@H]1CN1CCC(c2noc3ccsc23)CC1
result: 0.46

molecule: O=C(NCCc1cccc(C(F)(F)F)c1)[C@@H]1C[C@H]1CN1CCC(c2noc3ccsc23)CC1
result: 0.95

molecule: O=C([C@@H]1C[C@H]1CN1CCN(c2csc3cc(C(F)(F)F)ccc23)CC1)N1CCC(Cn2ccnc2)CC1
result: 1.11

molecule: O=C(Cc1ccccc1)NNC(=O)C1CC1CN1CCC(c2noc3ccsc23)CC1 (racemic)
result: 2.06

molecule: O=C(N[C@H]1CC[C@H](O)CC1)[C@@H]1C[C@H]1CN1CCN(c2nn(-c3ccccc3)c3ccsc23)CC1
result: 0.41

molecule: O=C(NCCCN1CCCC1)[C@@H]1C[C@H]1CN1CCC(c2noc3ccsc23)CC1
result: 0.79

molecule: O=C(NC1CCN(C(=O)Nc2ccc(F)cc2)CC1)C1CC1CN1CCC(c2noc3ccsc23)CC1 (racemic) [832576ES]
result: 1.24

molecule: CC(C)(C)c1ccc(CN2CCN(C(=O)C3CC3CN3CCC(c4noc5ccsc45)CC3)CC2)cc1 (racemic)
result: -0.65

molecule: O=C(NCCCn1ccnc1)[C@@H]1C[C@H]1CN1CCC(c2nsc3cc(Br)ccc23)CC1
result: 2.00

molecule: O=C(NC1CCN(Cc2ccccc2Cl)CC1)C1CC1CN1CCC(c2noc3ccsc23)CC1 (racemic)
result: 0.90

molecule: O=C(NC1CCN(Cc2cccc(Cl)c2)CC1)[C@@H]1C[C@H]1CN1CCC(c2noc3ccsc23)CC1
result: 0.49

molecule: O=C(NC1CCN(Cc2ccccc2)CC1)C1CC1CN1CCC(c2noc3ccsc23)CC1 (racemic)
result: 0.26

molecule: O=C([C@@H]1C[C@H]1CN1CCC(c2noc3c(C(F)(F)F)cccc23)CC1)N1CCCC(Cn2ccnc2)C1 (mixture of isomers)
result: 0.10

molecule: O=C(C1CC1CN1CCC(c2noc3ccsc23)CC1)N1CCN(Cc2ccccc2)CC1 (racemic)
result: 1.49

molecule: O=C(NC1CCN(Cc2cccc(Cl)c2)CC1)[C@@H]1C[C@H]1CN1CCN(c2csc3cc(C(F)(F)F)ccc23)CC1
result: 1.48

molecule: CC(C)(C)OC(=O)NCCN1CCN(C(=O)[C@@H]2C[C@H]2CN2CCN(c3csc4cc(C(F)(F)F)ccc34)CC2)CC1
result: 0.85

molecule: O=C(NCCCn1ccnc1)[C@@H]1C[C@H]1CN1CCN(c2csc3cc(C(F)(F)F)ccc23)CC1
result: 0.61

molecule: Cn1nc(C2CCN(C[C@@H]3C[C@H]3C(=O)N3CCC[C@@H](Cn4ccnc4)C3)CC2)c2cccc(C(F)(F)F)c21
result: -0.52
